Value source: ChEMBL document CHEMBL2346586

Target: Cyclin-dependent kinase 2 (Homo sapiens, UniProt P24941)
pIC50: −log10 of the molar value.
READOUT LABEL: pIC50

As a guide, the following entries are already answered.
{"columns": ["ENTRY SMILES", "TEST VALUE"],
 "data": [
  ["Nc1nccc(-n2cc(-c3cccc(Cl)c3)c3cnccc32)n1", "< 4.08"],
  ["Nc1nccc(-n2cc(-c3cccnc3Cl)c3cnccc32)n1", 6.51]
]}

Q: Recorded pIC50 for `N#Cc1ccc2ccn(-c3nccc(N)n3)c2c1` , please?
Ans: < 4.54

###

Species on record: Homo sapiens
Experiment: Selectivity ratio of IC50 for CDK2 (unknown origin) to IC50 for CDC7 (unknown origin)
compounds and their reported Ratio IC50

As a guide, the following entries are already answered.
{"columns": ["ENTRY SMILES", "Ratio IC50"],
 "data": [
  ["Nc1nccc(-n2cc(-c3cccc(Cl)c3)c3cnccc32)n1", "> 500"],
  ["Nc1nccc(-n2cc(-c3cccnc3Cl)c3cnc(Cl)cc32)n1", "> 2700"]
]}

Q: Recorded Ratio IC50 for `Nc1nccc(-n2ccc3cnc(Cl)cc32)n1` , please?
Ans: > 100
